The measurements presented in this section are drawn from patent US11351151B2.

# System: NCl-H2170
# procedure_details: Cell proliferation assay (Alamar Blue)
# Type: cell-based
# applied_conditions: 144 h; NCl-H2170 tumor cell line; 6 days

{"structure_string": "Cc1ccc(F)c(NC(=O)Nc2ccc(-c3cccc4c3c(N)nn4C(=O)CCCCCNC(=O)C[C@H](N)C(=O)N[C@@H](CCC(=O)N[C@@H](CCC(=O)N[C@@H](CCC(=O)N[C@@H](CCC(=O)N[C@@H](CCC(=O)N[C@@H](CCC(=O)N[C@@H](CCC(=O)N[C@@H](CCC(=O)N[C@@H](CCC(=O)O)C(=O)O)C(=O)O)C(=O)O)C(=O)O)C(=O)O)C(=O)O)C(=O)O)C(=O)O)C(=O)O)cc2)c1", "IC50": "> 100 µM"}
{"structure_string": "Cc1ccc(F)c(NC(=O)Nc2ccc(-c3cccc4c3c(N)nn4C(=O)CCCCCNC(=O)C[C@H](N)C(=O)N[C@@H](CCC(=O)N[C@@H](CCC(=O)N[C@@H](CCC(=O)N[C@@H](CCC(=O)O)C(=O)O)C(=O)O)C(=O)O)C(=O)O)cc2)c1", "IC50": "> 100 µM"}
{"structure_string": "Cc1ccc(F)c(NC(=O)Nc2ccc(-c3cccc4c3c(N)nn4C(=O)CCCCCCCCCCCNC(=O)C[C@H](N)C(=O)O)cc2)c1", "IC50": "> 30 µM"}
{"structure_string": "Cc1ccc(F)c(NC(=O)Nc2ccc(-c3cccc4c3c(N)nn4C(=O)CCCCCNC(=O)C[C@H](N)C(=O)O)cc2)c1", "IC50": "72.8 µM"}

====

# Tested on: AN3CA
# procedure_details: Cell proliferation assay (Alamar Blue)
# Format: cell-based
# applied_conditions: Homo sapiens, AN3-CA, 144 h; AN3CA (endometrial cells); 6 days
IC50 overview

{"compound": "Cc1ccc(F)c(NC(=O)Nc2ccc(-c3cccc4c3c(N)nn4C(=O)CCCCCNC(=O)C[C@H](N)C(=O)N[C@@H](CCC(=O)N[C@@H](CCC(=O)N[C@@H](CCC(=O)N[C@@H](CCC(=O)O)C(=O)O)C(=O)O)C(=O)O)C(=O)O)cc2)c1 [Compound 5]", "assayed_target": "AN3CA", "IC50": "45.6 µM"}
{"compound": "Cc1ccc(F)c(NC(=O)Nc2ccc(-c3cccc4c3c(N)nn4C(=O)CCCCCCCCCCCNC(=O)C[C@H](N)C(=O)N[C@@H](CCC(=O)N[C@@H](CCC(=O)N[C@@H](CCC(=O)N[C@@H](CCC(=O)N[C@@H](CCC(=O)N[C@@H](CCC(=O)N[C@@H](CCC(=O)N[C@@H](CCC(=O)N[C@@H](CCC(=O)O)C(=O)O)C(=O)O)C(=O)O)C(=O)O)C(=O)O)C(=O)O)C(=O)O)C(=O)O)C(=O)O)cc2)c1 [Compound 9]", "assayed_target": "AN3CA", "IC50": "8.42 µM"}

====

Listing of entries alongside the reported IC50.
# System: SNU886
# procedure_details: Cell proliferation assay (Alamar Blue)
# Format: cell-based
# applied_conditions: SNU-886, 144 h; SNU886 liver cancer cell line; 6 days

{"structure_string": "Cc1ccc(F)c(NC(=O)Nc2ccc(-c3cccc4c3c(N)nn4C(=O)CCCCCCCCCCCNC(=O)C[C@H](N)C(=O)O)cc2)c1", "IC50": "> 30 µM"}
{"structure_string": "Cc1ccc(F)c(NC(=O)Nc2ccc(-c3cccc4c3c(N)nn4C(=O)CCCCCNC(=O)C[C@H](N)C(=O)N[C@@H](CCC(=O)N[C@@H](CCC(=O)N[C@@H](CCC(=O)N[C@@H](CCC(=O)O)C(=O)O)C(=O)O)C(=O)O)C(=O)O)cc2)c1", "IC50": "> 100 µM"}
{"structure_string": "Cc1ccc(F)c(NC(=O)Nc2ccc(-c3cccc4c3c(N)nn4C(=O)CCCCCNC(=O)C[C@H](N)C(=O)O)cc2)c1", "IC50": "> 100 µM"}
